- STUDY_CONDITIONS: in ethanol, 278.15 K
METRIC_NAME: solubility (mole fraction)
API note: the answer field is a bare number with no unit suffix.

Recall and state the measured solubility (mole fraction) for FC(F)(F)c1cccnc1Cl .
0.186

====

- STUDY_CONDITIONS: in ethanol, 288.15 K
METRIC_NAME: solubility (mole fraction)
Format: numeric value only, no unit, no commentary.

Please look at this molecule and report its solubility (mole fraction): FC(F)(F)c1cccnc1Cl
0.363

====

- STUDY_CONDITIONS: in n-butanol, 263.15 K
METRIC_NAME: solubility (mole fraction)

Report measured solubility (mole fraction); entry is FC(F)(F)c1cccnc1Cl
0.0947

====

- STUDY_CONDITIONS: in ethyl acetate, 278.15 K
METRIC_NAME: solubility (mole fraction)
Enter the number alone.

Input FC(F)(F)c1cccnc1Cl , output reported solubility (mole fraction).
0.455

====

- STUDY_CONDITIONS: in ethyl acetate, 293.15 K
METRIC_NAME: solubility (mole fraction)
API doc: respond with a numeric literal and nothing else, no unit.

Give solubility (mole fraction) for the following compound: FC(F)(F)c1cccnc1Cl
0.652

====

- STUDY_CONDITIONS: in ethanol, 263.15 K
METRIC_NAME: solubility (mole fraction)
Enter a number only.

Consider the compound FC(F)(F)c1cccnc1Cl . State its measured solubility (mole fraction).
0.0807

====

- STUDY_CONDITIONS: in n-butanol, 273.15 K
METRIC_NAME: solubility (mole fraction)
Format: numeric value only, no unit, no commentary.

Identify measured solubility (mole fraction) corresponding to FC(F)(F)c1cccnc1Cl
0.14

====

- STUDY_CONDITIONS: in ethyl acetate, 288.15 K
METRIC_NAME: solubility (mole fraction)
Please reply with the number alone, leaving off any unit.

Please list solubility (mole fraction) recorded for the molecule FC(F)(F)c1cccnc1Cl
0.583

====

- STUDY_CONDITIONS: in n-butanol, 278.15 K
METRIC_NAME: solubility (mole fraction)

Give the measured solubility (mole fraction) for FC(F)(F)c1cccnc1Cl
0.183

====

- STUDY_CONDITIONS: in n-butanol, 283.15 K
METRIC_NAME: solubility (mole fraction)
The response must contain the number and no unit.

State its solubility (mole fraction): FC(F)(F)c1cccnc1Cl
0.229

====

- STUDY_CONDITIONS: in ethanol, 283.15 K
METRIC_NAME: solubility (mole fraction)

Determine from records and report solubility (mole fraction) for FC(F)(F)c1cccnc1Cl
0.262

====

- STUDY_CONDITIONS: in n-butanol, 298.15 K
METRIC_NAME: solubility (mole fraction)
Answer as a number with no unit attached.

Please supply the value of reported solubility (mole fraction) for the item FC(F)(F)c1cccnc1Cl
0.421

====

- STUDY_CONDITIONS: in ethyl acetate, 303.15 K
METRIC_NAME: solubility (mole fraction)
Would you mind answering with just the numeric figure?

Answer with the recorded solubility (mole fraction) for the molecule listed here: FC(F)(F)c1cccnc1Cl
0.824

====

- STUDY_CONDITIONS: in ethanol, 293.15 K
METRIC_NAME: solubility (mole fraction)
Give the value as a plain number.

Report solubility (mole fraction), nothing else, for this compound: FC(F)(F)c1cccnc1Cl
0.476

====

- STUDY_CONDITIONS: in n-butanol, 293.15 K
METRIC_NAME: solubility (mole fraction)
// response body must contain only the number

Consider the compound FC(F)(F)c1cccnc1Cl . State its measured solubility (mole fraction).
0.345

Origin of values: BigSolDB 2.1
